IC50 reference
# target.of.assay: PPARγ (Homo sapiens)
# Sequence (P37231 1-505): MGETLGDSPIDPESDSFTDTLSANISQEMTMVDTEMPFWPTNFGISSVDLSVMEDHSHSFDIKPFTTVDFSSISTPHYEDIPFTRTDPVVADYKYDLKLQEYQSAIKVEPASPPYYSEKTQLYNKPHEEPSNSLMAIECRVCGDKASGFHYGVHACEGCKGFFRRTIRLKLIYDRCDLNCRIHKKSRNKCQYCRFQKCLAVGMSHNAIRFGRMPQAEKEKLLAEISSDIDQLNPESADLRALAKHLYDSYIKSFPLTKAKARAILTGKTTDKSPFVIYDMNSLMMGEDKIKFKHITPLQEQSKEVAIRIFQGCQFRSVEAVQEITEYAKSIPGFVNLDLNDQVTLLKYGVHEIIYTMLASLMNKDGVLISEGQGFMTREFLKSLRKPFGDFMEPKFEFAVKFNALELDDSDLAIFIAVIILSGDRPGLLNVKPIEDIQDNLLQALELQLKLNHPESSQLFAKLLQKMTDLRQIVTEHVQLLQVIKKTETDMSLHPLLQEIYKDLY
metric: IC50

- query.smiles: "CCCCc1nc(NS(=O)(=O)c2ccc(Cl)cc2)ncc1Sc1ccc(S(=O)(=O)N2CCCCC2)cc1"
  value: "< 1000 nM"
- query.smiles: "Cc1nc(NS(=O)(=O)c2ccc(Cl)cc2Cl)ncc1Sc1ccc2ccccc2c1"
  value: "< 10000 nM"
- query.smiles: "CC(C)CC(=O)c1nc(NS(=O)(=O)c2ccc(Cl)cc2Cl)ccc1Sc1ccc(S(=O)(=O)N2CCCCC2)cc1"
  value: "< 1000 nM"
- query.smiles: "Cc1cc(S(=O)(=O)Nc2ccc(Sc3ccc(S(=O)(=O)N4CCCCC4)cc3)c(C)n2)c(Cl)cc1Cl"
  value: "< 1000 nM"
- query.smiles: "CCc1nc(NS(=O)(=O)c2ccc(Cl)cc2Cl)ccc1Sc1ccc(S(=O)(=O)N2CCOCC2)cc1"
  value: "< 10000 nM"
- query.smiles: "CCCC(=O)c1nc(NS(=O)(=O)c2ccc(Cl)cc2Cl)ccc1Sc1ccc(S(=O)(=O)N2CCOCC2)cc1"
  value: "< 1000 nM"
- query.smiles: "CCCCc1nc(NS(=O)(=O)c2ccc(Cl)cc2Cl)ccc1Sc1ccc(S(=O)(=O)N2CCCCC2)cc1"
  value: "< 1000 nM"
